biological target: 5-hydroxytryptamine receptor 5A (Homo sapiens)
Sequence (P47898 whole entry): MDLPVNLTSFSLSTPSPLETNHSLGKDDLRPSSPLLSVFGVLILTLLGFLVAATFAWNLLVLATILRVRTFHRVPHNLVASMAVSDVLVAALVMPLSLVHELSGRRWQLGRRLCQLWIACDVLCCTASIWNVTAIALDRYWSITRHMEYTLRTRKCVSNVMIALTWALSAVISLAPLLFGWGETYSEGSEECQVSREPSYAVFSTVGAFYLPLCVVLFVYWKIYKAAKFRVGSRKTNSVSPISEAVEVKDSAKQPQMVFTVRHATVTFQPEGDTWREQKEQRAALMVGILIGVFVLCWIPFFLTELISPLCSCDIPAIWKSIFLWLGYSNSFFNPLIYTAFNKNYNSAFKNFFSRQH
pKi: −log10 of the molar value.
Recorded Metric: pKi

# Mol Smiles, Result
measured = [
    ("COCCCN1CCC(NC(=O)c2cc(Cl)c(N)c3c2OCC3)CC1", "< 5.00"),
]

###

Target: Alpha-2A adrenergic receptor (Homo sapiens, UniProt P08913)
Sequence (P08913 whole entry): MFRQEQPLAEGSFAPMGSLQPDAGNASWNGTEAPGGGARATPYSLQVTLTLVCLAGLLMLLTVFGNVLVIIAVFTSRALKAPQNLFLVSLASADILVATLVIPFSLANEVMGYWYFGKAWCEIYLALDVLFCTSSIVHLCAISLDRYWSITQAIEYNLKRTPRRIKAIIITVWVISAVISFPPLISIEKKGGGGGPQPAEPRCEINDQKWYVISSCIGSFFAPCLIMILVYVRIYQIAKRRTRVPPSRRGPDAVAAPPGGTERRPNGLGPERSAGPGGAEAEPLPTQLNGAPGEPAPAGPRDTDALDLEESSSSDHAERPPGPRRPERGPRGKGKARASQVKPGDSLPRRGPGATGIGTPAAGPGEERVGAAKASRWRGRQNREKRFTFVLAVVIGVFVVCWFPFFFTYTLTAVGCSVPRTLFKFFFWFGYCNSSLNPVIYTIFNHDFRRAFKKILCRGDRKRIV

# Mol Smiles, Ki
data = [
    ("COCCCN1CCC(NC(=O)c2cc(Cl)c(N)c3c2OCC3)CC1", "> 10 µM"),
]

###

target: UniProt P29371
Sequence (P29371 whole entry): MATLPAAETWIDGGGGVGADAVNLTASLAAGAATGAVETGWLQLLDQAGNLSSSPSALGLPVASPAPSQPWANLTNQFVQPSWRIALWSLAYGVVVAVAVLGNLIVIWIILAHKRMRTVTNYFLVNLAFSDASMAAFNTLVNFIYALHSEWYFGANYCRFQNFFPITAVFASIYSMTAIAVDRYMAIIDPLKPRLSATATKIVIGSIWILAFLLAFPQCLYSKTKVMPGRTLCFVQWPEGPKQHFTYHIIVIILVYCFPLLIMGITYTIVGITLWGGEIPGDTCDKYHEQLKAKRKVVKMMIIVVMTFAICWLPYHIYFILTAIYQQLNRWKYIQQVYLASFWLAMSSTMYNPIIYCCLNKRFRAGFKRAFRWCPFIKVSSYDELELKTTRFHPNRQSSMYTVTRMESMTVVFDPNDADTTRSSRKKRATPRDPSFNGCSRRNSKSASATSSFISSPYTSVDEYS
pKi: −log10 of the molar value.
Recorded Metric: pKi

# Mol Smiles, Recorded Metric, Result
data = [
    ("COCCCN1CCC(NC(=O)c2cc(Cl)c(N)c3c2OCC3)CC1", "pKi", "< 5.00"),
]

###

biological target: Thromboxane A2 receptor (Homo sapiens, UniProt P21731)
Sequence (P21731 whole entry): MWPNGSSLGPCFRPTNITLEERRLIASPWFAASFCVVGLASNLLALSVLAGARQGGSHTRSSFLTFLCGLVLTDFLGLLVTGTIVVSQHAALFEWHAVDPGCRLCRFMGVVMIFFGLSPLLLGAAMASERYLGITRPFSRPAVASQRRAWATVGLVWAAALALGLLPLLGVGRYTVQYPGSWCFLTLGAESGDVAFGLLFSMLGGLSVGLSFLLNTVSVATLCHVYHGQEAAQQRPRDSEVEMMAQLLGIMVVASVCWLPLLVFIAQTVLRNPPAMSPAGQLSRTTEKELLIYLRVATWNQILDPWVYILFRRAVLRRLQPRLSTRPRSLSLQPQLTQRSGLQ

# Mol Smiles, Ki
measured = [
    ("COCCCN1CCC(NC(=O)c2cc(Cl)c(N)c3c2OCC3)CC1", "> 10 µM"),
]

###

biological target: Beta-1 adrenergic receptor (Homo sapiens)
Sequence (P08588 whole entry): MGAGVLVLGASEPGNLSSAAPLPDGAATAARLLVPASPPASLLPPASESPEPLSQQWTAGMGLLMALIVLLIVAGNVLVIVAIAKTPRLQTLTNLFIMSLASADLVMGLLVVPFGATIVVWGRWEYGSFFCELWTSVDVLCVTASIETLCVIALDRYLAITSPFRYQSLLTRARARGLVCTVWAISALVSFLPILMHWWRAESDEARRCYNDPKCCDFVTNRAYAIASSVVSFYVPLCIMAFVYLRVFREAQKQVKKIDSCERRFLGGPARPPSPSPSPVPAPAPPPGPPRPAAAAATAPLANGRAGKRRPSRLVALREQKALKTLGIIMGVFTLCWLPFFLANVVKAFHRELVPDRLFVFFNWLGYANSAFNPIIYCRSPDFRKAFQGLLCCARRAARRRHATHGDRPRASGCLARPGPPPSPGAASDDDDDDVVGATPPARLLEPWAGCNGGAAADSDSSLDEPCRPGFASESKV
pKi: −log10 of the molar value.
Recorded Metric: pKi

# Mol Smiles, Study System, Result
data = [
    ("COCCCN1CCC(NC(=O)c2cc(Cl)c(N)c3c2OCC3)CC1", "Beta-1 adrenergic receptor (Homo sapiens)", "< 5.00"),
]

###

target: Delta-type opioid receptor (Homo sapiens, UniProt P41143)
Sequence (P41143 whole entry): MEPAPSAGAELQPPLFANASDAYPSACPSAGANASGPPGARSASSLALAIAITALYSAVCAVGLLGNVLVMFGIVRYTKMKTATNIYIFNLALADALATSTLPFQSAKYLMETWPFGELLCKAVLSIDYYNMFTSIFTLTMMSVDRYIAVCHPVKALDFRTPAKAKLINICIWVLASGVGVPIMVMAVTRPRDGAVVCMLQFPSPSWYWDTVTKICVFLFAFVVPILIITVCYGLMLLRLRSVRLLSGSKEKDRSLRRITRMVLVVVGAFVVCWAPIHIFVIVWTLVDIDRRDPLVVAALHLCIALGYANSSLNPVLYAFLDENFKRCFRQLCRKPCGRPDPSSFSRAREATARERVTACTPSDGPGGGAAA
pKi: −log10 of the molar value.
Recorded Metric: pKi

# Mol Smiles, Recorded Metric, Result
rows = [
    ("COCCCN1CCC(NC(=O)c2cc(Cl)c(N)c3c2OCC3)CC1", "pKi", "< 5.00"),
]

###

target: 5-hydroxytryptamine receptor 3A (Mus musculus, UniProt P23979)
Sequence (P23979 as listed by the source): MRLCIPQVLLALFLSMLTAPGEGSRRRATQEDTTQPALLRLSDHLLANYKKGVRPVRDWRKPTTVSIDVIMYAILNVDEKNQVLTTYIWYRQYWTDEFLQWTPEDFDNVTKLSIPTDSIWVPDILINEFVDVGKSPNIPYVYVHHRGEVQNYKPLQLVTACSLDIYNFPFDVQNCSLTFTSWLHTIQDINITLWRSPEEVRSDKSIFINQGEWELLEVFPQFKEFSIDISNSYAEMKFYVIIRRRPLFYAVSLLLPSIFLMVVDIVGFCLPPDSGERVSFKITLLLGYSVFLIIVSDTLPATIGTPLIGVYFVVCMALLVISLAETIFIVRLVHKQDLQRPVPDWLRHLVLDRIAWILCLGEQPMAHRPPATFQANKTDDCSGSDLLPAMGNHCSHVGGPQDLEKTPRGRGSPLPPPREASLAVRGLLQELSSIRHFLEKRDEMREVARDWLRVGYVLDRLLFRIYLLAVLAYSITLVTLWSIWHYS

# Mol Smiles, Ki, µM
measured = [
    ("COCCCN1CCC(NC(=O)c2cc(Cl)c(N)c3c2OCC3)CC1", 3.82),
]

###

molecular target: 5-hydroxytryptamine receptor 1F (Homo sapiens)
pKi: −log10 of the molar value.
Recorded Metric: pKi

# Mol Smiles, Recorded Metric, Result
data = [
    ("COCCCN1CCC(NC(=O)c2cc(Cl)c(N)c3c2OCC3)CC1", "pKi", "< 5.00"),
]

###

Target chain: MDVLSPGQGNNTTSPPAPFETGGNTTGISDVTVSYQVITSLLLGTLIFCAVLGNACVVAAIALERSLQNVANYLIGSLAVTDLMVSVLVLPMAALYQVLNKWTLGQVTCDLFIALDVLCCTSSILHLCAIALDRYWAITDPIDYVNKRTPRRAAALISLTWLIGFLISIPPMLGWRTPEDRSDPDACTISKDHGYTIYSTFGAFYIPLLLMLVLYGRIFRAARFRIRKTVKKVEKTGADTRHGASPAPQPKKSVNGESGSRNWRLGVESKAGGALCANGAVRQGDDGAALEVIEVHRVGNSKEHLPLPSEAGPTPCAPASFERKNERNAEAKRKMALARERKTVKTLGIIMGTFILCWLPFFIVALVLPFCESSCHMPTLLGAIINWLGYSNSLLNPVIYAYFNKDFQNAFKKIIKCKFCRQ
pKi: −log10 of the molar value.
Recorded Metric: pKi

# Mol Smiles, Result
measured = [
    ("COCCCN1CCC(NC(=O)c2cc(Cl)c(N)c3c2OCC3)CC1", "< 5.00"),
]

###

Sequence of the target: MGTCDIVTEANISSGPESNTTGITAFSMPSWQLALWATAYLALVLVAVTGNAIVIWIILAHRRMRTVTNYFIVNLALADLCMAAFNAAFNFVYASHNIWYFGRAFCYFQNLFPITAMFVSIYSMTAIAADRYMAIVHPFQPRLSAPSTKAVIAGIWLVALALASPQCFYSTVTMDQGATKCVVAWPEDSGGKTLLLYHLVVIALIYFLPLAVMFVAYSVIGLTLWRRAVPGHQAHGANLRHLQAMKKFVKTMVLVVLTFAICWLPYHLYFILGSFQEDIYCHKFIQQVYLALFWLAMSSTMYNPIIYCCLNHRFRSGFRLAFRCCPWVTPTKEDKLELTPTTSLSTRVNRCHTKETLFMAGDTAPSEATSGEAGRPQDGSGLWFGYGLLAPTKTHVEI
pKi: −log10 of the molar value.
Recorded Metric: pKi

# Mol Smiles, Recorded Metric, Result
measured = [
    ("COCCCN1CCC(NC(=O)c2cc(Cl)c(N)c3c2OCC3)CC1", "pKi", "< 5.00"),
]

###

Target: Sodium- and chloride-dependent glycine transporter 2 (Homo sapiens, UniProt Q9Y345)
Sequence (Q9Y345 whole entry): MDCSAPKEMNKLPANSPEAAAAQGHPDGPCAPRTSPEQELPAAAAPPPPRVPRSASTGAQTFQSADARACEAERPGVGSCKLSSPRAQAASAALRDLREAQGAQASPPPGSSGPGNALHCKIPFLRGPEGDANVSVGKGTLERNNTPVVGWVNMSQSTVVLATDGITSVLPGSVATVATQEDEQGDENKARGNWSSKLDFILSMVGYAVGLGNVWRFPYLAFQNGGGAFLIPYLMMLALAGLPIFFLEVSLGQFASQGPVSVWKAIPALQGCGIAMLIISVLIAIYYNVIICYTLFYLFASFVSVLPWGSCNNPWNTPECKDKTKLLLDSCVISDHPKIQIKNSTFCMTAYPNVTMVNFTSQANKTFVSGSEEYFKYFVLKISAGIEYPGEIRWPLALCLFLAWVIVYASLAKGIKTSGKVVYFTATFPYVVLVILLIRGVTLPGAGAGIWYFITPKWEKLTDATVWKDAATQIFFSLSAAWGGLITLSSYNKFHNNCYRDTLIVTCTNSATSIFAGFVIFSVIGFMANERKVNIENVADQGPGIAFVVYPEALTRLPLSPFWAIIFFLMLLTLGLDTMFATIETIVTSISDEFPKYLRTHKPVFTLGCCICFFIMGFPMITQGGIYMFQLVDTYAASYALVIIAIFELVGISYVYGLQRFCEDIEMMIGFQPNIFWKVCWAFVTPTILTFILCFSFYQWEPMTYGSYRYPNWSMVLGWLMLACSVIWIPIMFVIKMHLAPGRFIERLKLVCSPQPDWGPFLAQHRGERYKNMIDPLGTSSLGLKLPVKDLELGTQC

# Mol Smiles, Study System, Ki
rows = [
    ("COCCCN1CCC(NC(=O)c2cc(Cl)c(N)c3c2OCC3)CC1", "Sodium- and chloride-dependent glycine transporter 2 (Homo sapiens, UniProt Q9Y345)", "> 10 µM"),
]

###

Protein target, amino acids: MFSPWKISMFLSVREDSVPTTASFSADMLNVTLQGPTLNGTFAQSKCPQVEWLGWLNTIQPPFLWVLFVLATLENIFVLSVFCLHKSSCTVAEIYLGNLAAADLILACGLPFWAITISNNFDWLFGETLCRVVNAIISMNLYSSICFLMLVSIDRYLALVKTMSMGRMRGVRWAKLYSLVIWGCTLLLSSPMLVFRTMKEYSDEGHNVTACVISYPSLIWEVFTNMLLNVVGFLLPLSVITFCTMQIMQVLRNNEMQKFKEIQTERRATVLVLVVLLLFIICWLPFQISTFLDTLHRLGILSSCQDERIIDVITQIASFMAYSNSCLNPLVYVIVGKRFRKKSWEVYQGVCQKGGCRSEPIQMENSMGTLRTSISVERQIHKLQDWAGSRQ
pKi: −log10 of the molar value.

# Mol Smiles, pKi
measured = [
    ("COCCCN1CCC(NC(=O)c2cc(Cl)c(N)c3c2OCC3)CC1", "< 5.00"),
]

###

target: Voltage-dependent L-type calcium channel subunit alpha-1C (Rattus norvegicus, UniProt P22002)
Sequence (P22002 whole entry): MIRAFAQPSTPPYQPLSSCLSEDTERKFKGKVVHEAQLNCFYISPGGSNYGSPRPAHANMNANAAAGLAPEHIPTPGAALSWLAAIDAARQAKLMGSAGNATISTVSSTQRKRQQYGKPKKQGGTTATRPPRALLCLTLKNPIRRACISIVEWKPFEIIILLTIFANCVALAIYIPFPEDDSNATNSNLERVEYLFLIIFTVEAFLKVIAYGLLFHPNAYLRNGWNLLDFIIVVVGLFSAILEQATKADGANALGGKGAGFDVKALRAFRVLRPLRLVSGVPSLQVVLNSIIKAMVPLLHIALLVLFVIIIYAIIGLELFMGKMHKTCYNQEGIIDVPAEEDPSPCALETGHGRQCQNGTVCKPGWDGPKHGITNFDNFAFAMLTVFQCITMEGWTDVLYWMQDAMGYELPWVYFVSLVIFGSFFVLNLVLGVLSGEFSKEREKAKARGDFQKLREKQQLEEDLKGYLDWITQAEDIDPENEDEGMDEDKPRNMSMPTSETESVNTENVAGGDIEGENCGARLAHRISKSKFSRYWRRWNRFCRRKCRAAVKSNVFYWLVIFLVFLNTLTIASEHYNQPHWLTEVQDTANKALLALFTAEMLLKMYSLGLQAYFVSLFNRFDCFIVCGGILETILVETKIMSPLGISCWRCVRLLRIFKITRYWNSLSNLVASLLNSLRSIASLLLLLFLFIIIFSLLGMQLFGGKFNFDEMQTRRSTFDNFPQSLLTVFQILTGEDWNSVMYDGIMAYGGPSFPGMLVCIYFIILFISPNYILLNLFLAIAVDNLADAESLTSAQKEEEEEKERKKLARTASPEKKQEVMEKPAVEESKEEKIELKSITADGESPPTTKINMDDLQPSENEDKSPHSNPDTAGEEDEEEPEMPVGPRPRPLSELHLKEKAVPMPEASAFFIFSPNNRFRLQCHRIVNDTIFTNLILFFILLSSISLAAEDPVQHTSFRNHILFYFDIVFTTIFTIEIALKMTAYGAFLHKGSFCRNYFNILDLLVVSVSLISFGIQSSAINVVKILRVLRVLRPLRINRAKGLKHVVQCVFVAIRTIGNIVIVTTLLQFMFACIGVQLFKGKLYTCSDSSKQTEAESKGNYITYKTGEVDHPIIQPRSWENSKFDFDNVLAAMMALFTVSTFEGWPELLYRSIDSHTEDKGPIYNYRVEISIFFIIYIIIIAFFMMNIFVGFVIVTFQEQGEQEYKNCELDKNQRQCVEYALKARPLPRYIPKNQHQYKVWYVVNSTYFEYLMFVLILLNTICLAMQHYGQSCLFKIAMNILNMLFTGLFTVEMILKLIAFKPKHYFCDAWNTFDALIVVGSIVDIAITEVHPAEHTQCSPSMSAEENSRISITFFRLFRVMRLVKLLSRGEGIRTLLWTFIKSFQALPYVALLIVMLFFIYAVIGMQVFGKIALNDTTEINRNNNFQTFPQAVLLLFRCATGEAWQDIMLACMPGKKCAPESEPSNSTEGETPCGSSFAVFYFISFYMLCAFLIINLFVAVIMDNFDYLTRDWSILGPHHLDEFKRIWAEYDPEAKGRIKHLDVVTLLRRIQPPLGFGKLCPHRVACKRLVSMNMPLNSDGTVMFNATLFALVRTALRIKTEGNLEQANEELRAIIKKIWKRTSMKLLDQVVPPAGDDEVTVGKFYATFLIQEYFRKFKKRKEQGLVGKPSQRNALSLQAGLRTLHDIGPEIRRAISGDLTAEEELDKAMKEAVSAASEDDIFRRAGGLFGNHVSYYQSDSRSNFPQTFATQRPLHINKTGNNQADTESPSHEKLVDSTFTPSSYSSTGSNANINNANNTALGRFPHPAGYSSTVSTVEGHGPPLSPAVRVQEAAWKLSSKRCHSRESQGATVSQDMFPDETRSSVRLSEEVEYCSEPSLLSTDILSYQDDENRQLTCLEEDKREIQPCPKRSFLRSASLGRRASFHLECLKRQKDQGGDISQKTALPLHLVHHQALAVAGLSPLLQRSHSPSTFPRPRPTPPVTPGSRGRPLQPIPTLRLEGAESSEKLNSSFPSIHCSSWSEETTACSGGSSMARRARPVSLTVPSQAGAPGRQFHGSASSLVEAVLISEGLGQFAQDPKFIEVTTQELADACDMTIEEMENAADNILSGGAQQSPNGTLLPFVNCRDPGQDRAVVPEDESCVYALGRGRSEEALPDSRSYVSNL
Recorded Metric: Ki

# Mol Smiles, Recorded Metric, Result
records = [
    ("COCCCN1CCC(NC(=O)c2cc(Cl)c(N)c3c2OCC3)CC1", "Ki", "> 10 µM"),
]

###

Protein target, amino acids: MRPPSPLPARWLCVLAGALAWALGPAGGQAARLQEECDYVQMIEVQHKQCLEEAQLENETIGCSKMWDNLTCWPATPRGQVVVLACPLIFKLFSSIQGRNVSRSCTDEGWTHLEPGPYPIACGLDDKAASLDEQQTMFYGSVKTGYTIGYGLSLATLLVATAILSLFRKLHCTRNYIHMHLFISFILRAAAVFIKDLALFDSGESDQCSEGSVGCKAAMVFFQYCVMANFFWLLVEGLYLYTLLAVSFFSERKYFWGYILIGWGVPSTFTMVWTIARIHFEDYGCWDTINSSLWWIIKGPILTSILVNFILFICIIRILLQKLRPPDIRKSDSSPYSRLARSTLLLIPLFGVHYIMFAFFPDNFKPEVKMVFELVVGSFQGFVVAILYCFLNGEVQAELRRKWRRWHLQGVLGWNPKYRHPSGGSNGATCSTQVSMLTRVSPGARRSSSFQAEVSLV

# Mol Smiles, Ki
rows = [
    ("COCCCN1CCC(NC(=O)c2cc(Cl)c(N)c3c2OCC3)CC1", "> 10 µM"),
]
